target: Human fibrinogen receptor (αIIbβ3) (Homo sapiens, UniProt P05106+P08514); construct: Human fibrinogen receptor (αIIbβ3) was purified from outdated platelets; from tissue; host or cells: outdated human platelets; test: Purified IIb/IIIa receptor assay (solid phase receptor assay, competition with biotinylated vitronectin); format: binding; details: read-out: IIb/IIIa IC50
Sequence (P08514 32-887 limits assumed): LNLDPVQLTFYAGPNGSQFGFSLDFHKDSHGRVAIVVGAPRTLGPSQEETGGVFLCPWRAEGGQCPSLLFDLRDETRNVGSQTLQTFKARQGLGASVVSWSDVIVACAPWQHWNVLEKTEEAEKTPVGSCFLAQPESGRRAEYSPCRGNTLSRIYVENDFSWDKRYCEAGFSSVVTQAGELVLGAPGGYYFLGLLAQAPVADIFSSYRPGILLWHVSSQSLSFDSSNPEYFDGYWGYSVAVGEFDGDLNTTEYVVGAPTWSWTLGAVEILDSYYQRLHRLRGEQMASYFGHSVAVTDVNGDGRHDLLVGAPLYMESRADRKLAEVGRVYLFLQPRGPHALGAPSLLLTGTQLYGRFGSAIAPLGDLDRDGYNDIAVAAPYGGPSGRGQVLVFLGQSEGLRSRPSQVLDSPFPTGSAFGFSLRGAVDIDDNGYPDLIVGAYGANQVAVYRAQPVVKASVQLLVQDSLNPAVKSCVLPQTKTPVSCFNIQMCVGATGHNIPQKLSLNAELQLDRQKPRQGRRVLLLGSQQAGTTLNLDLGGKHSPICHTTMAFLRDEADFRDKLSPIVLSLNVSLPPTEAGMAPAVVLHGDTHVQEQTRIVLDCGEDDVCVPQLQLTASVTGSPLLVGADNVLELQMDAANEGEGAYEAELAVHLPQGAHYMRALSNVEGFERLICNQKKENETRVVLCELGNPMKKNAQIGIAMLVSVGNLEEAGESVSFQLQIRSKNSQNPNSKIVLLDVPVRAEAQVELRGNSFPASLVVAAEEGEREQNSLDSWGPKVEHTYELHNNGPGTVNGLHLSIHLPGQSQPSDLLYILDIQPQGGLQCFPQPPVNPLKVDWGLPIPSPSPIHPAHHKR
Sequence (P08514 891-1039 limits assumed): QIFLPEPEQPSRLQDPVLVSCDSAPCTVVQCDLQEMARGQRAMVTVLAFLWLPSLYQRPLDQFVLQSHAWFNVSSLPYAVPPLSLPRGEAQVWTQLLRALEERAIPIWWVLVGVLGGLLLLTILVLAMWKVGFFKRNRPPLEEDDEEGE
Sequence (P05106 27-788): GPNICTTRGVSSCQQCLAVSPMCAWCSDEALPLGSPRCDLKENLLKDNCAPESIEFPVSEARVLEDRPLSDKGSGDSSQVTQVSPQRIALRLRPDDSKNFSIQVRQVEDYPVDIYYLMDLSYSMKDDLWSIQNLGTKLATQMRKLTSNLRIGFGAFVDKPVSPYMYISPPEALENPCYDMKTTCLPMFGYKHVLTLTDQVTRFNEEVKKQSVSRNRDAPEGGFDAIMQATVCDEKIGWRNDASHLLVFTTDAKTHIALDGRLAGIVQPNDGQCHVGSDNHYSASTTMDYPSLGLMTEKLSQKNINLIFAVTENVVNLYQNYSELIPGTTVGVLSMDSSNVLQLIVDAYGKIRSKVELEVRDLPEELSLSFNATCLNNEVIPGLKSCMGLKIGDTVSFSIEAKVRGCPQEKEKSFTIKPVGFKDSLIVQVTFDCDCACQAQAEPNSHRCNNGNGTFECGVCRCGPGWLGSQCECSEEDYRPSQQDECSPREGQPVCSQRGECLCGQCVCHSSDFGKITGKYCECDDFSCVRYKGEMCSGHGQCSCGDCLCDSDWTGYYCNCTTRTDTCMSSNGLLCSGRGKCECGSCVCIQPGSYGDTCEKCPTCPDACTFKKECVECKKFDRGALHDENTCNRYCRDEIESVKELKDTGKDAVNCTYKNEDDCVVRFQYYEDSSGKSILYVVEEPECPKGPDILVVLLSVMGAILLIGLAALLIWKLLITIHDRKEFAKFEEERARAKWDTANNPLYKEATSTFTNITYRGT
pIC50: −log10 of the molar value. Structures can show the parent of a compound that is named as a salt.

Molecule: NC(=O)Nc1cccc(C(=O)NCC(=O)NC(CC(=O)O)c2cccnc2)c1 (stereo not drawn) [Example 110, trifluoroacetate salt]
Modifier: =
pIC50: 5.73
--
Molecule: O=C(O)CC(NC(=O)CNC(=O)c1cccc(NC(=O)NCc2ccccc2)c1)c1cccc(Cl)c1 (stereo not drawn) [Example 270, monohydrate]
Modifier: =
pIC50: 5.04
--
Molecule: CCOC(=O)CC(NC(=O)CNC(=O)c1cccc(NC(=O)Nc2ccccc2)c1)c1ccc2c(c1)OCO2 (stereo not drawn)
Modifier: =
pIC50: 4.07
--
Molecule: Cc1cc(Br)cc(C(CC(=O)O)NC(=O)CNC(=O)c2cccc(NC(=N)N)c2)c1 (racemic) [Example 212, trifluoroacetate salt]
Modifier: =
pIC50: 6.51
--
Molecule: CC(C)C(CC(=O)O)NC(=O)CNC(=O)c1cccc(NC(=N)N)c1 (stereo not drawn) [Example 263, trifluoroacetate salt]
Modifier: =
pIC50: 5.56
--
Molecule: CCOC(=O)CC(NC(=O)CNC(=O)c1cccc(N/C(=N/C#N)NCc2ccccn2)c1)c1ccccc1 (stereo not drawn) [Example 143, trifluoroacetate salt]
Modifier: <
pIC50: 4.00
--
Molecule: N=C(N)Nc1cccc(C(=O)NCC(=O)NC(CC(=O)O)c2ccccc2OCC(=O)O)c1 (stereo not drawn) [Example 255, trifluoroacetate salt]
Modifier: =
pIC50: 5.22
--
Molecule: N=C(N)Nc1cccc(C(=O)NCC(=O)NC(CC(=O)O)c2cc(Br)cc(I)c2)c1 (racemic) [Example 219, trifluoroacetate salt]
Modifier: =
pIC50: 6.60
--
Molecule: C#C[C@H](CC(=O)O)NC(=O)CNC(=O)c1cccc(N/C(=N\C#N)NCc2ccc(S(N)(=O)=O)cc2)c1 [Example 158, trifluoroacetate salt, monohydrate]
Modifier: =
pIC50: 6.26
--
Molecule: N=C(N)Nc1cc(C(=O)NCC(=O)NC(CC(=O)O)c2cc(C(F)(F)F)cc(C(F)(F)F)c2)cc(C(F)(F)F)c1 (racemic) [Example 39, trifluoroacetate salt]
Modifier: =
pIC50: 5.81
--
Molecule: N=C(N)Nc1cc(C(=O)NCC(=O)NC(CC(=O)O)c2cc(Br)cc(Br)c2)cc(C(F)(F)F)c1 (racemic) [Example 213, trifluoroacetate salt]
Modifier: =
pIC50: 6.48
--
Molecule: CCOC(=O)CCNC(=O)CNC(=O)c1cccc(NC(=N)N)c1
Modifier: =
pIC50: 5.27
